System: Plasmodium falciparum Sir2 (PF13_0152, Sir2A)
measurement description: pfSir2 binders on small-molecule microarrays, primary screen, biochemical, small-molecule microarray, 635 nm fluorescence (AID 1098);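 further: score merges spot fluorescence intensity with its signal-to-noise ratio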
experimental context: small-molecule microarray binding, fluorescence 635 nm; higher = more signal
Kindly state composite z-score for each of the entries shown.
Number only, please.

Which composite z-score reading was recorded for the compound CS(=O)(=O)CCOC(=O)C1=CC(CCCO)=CC(C2CC2)N(Cc2cccc(OC(F)(F)F)c2)C=C1C(=O)OCCS(C)(=O)=O (stereo not given) ?
1.09

Please look up its composite z-score: COc1cc(NN2C(C(O)C3CCCCC3)C=CC3C(=O)N(C)C(=O)C32)cc(OC)c1OC (stereo not given)
1.04

Can you share its composite z-score? I mean this compound: O=C1OCC=C[C@H]2OC34C=CCN(c5ccc6ccccc6c5)C(=O)[C@H]3N(CCCCCO)C(=O)[C@@H]4[C@@H]12 (stereo not given in full)
1.88

Record request: composite z-score value, item `CCOC(=O)C[C@H]1[C@H](OC(=O)c2ccc(-c3ccccc3)cc2)[C@@H](NC(=O)CC(C)C)c2cc(OCCCO)ccc2N1C(=O)c1ccccc1`
0.166

I would be grateful if you could share the reported composite z-score for `COc1ccc(C#Cc2ccc3c(c2)[C@]2(C(=O)N3)[C@H](c3ccc(OCCO)cc3)N3[C@H](c4ccccc4)[C@H](c4ccccc4)OC(=O)[C@H]3[C@@H]2C(=O)N2CCc3cc(OC)c(OC)cc3C2)cc1` .
1.38
